# procedure summary: viability of PBMCs (CTG and propidium iodide exclusion)
# Format: cell-based, human
# details: human, PMBC 24H; 4 µM; rep1-4; read-out: PBMC viability relative to 0 µM = 100 (Figure S8a)
# Method: Propidium iodide exclusion was used to assess cell death by flow cytometry. After treatment, the cells were washed once with PBS and stained with 1.4 μg/mL propidium iodide (PI) for 5 min before quantification of PI negative and positive cells using a CytoFLEX flow cytometer (California, United States). An example of the gating strategy to assess PI staining can be found in Fig. S8c. […] cells. a. […]
recorded endpoint: viability at 24 h, 4 µM

Qu. For the compound shown here, CCCCCCCOc1ccc(OCC(=O)c2nc(C(=O)OC)cs2)cc1 , give the reported viability at 24 h, 4 µM.
Ans. 101%

---

I'd appreciate it if you could supply pIC50 values for the items below.
# Tested on: panel of 66 cancer cell lines
# procedure summary: cancer cell line screen, proliferation assay (ATPlite, 72 h)
# Assay type: cell-based, human
# details: Homo sapiens, VA-ES-BJ; read-out: IC50
Numbers only, as −log10 of the molar value.

Qu. Query pIC50 on panel of 66 cancer cell lines for CCCCCCCOc1ccc(OCC(=O)c2nc(C(=O)OC)cs2)cc1
Ans. 4.64

The record that follows has no pIC50 shown yet.
Qu. Query pIC50 on panel of 66 cancer cell lines for CCCCCCCCc1ccc(OCC(=O)c2nc(C(=O)OC)cs2)cc1
Ans. 4.71

---

# System: panel of 66 cancer cell lines
# procedure summary: cancer cell line screen, proliferation assay (ATPlite, 72 h)
# Assay type: cell-based, human
# details: Homo sapiens, DoTc2-4510, DoTc2 4510; read-out: IC50
recorded endpoint: IC50 (µM)
One number for each entry, in µM.

Qu. Query IC50 on panel of 66 cancer cell lines for CCCCCCCCc1ccc(OCC(=O)c2nc(C(=O)OC)cs2)cc1
Ans. 16.7

The record that follows has no IC50 shown yet.
Qu. Query IC50 on panel of 66 cancer cell lines for CCCCCCCOc1ccc(OCC(=O)c2nc(C(=O)OC)cs2)cc1
Ans. 18.1

---

I'd appreciate it if you could supply pIC50 values for the items below.
# System: panel of 66 cancer cell lines
# procedure summary: cancer cell line screen, proliferation assay (ATPlite, 72 h)
# Assay type: cell-based, human
# details: Homo sapiens, A-427, A-427; read-out: IC50
Give bare numbers, as −log10 of the molar value.

Quick one: give me pIC50 for each item below, same order please.
1. CCCCCCCOc1ccc(OCC(=O)c2nc(C(=O)OC)cs2)cc1 [GK420]
2. CCCCCCCCc1ccc(OCC(=O)c2nc(C(=O)OC)cs2)cc1 [GK470]

Ans.
[4.92, 4.93]

---

# tested on: recombinant human cPLA2α (Homo sapiens, UniProt P47712)
# Sequence (P47712 whole entry): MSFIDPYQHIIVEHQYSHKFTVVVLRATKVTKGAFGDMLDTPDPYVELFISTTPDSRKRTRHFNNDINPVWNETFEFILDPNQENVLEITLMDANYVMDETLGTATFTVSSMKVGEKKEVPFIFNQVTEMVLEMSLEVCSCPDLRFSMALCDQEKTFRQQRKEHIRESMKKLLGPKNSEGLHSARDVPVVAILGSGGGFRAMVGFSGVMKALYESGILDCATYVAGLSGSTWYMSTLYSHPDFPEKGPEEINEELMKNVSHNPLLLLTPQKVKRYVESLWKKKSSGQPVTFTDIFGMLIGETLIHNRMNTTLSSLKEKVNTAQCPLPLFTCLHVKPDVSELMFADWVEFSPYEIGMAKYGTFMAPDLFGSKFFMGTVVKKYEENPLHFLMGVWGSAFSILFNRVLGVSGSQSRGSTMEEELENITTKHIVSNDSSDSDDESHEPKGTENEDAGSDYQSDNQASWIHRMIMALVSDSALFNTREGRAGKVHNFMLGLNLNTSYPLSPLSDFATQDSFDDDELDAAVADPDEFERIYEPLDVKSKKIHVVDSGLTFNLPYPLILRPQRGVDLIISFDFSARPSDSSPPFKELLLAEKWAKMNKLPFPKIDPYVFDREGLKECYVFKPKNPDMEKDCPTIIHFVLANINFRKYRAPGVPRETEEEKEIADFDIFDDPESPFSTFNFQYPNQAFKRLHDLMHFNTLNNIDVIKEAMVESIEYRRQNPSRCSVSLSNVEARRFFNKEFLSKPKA
# procedure summary: radioactivity-based mixed micelle assay, cPLA2α
# Format: biochemical
# details: individual technical replicate; read-out: cPLA2 % inhibition at 0.091 mole fraction
recorded endpoint: inhibition at 0.091 mole fraction (%)
Answers are plain numbers, in %.

Qu. For the molecule shown here, CCCCCCCOc1ccc(OCC(=O)c2nc(C(=O)OC)cs2)cc1 , give the reported inhibition at 0.091 mole fraction.
Ans. 97.2

Quick one: give me inhibition at 0.091 mole fraction for each item below, same order please.
1. CCCCCCSc1ccc(OC(C)C(=O)c2nc(C(=O)OC)cs2)cc1 (centres unmarked)
2. COC(=O)c1csc(C(=O)COc2ccc(Oc3ccccc3)cc2)n1
3. COC(=O)c1csc(C(=O)C(C)Oc2ccc(Oc3ccccc3)cc2)n1 (centres unmarked)
4. CCCCCCSc1ccc(OCC(=O)c2nc(C(=O)OC)cs2)cc1

Ans.
[96.2, 95.1, 94.2, 98.4]

---

# tested on: secreted GV sPLA2 (Homo sapiens, UniProt P39877)
# Sequence (P39877 21-138): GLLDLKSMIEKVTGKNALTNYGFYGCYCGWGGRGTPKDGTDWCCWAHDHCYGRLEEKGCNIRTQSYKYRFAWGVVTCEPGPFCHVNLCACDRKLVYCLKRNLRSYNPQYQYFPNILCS
# procedure summary: radioactivity-based mixed micelle assay, GV sPLA2
# Type: biochemical
# details: 0.091 mole fraction; read-out: GV sPLA2 % Inhib
# Procedure: All synthesized thiazolyl ketones were tested for their in vitro inhibitory activity on recombinant human cPLA2α and selectivity over human calcium-independent GVIA iPLA2 and secreted GV sPLA2 using our previously described group-specific radioactivity-based mixed micelle assays. The inhibition results are presented either as per cent inhibition or as XI(50) values in Table 1. […]
Mark Condition met for reported inhibition at 0.091 mole fraction of 40% or greater; mark Condition not met for anything smaller.

Reference set (2 entries):
Qu. Reported inhibition at 0.091 mole fraction at or above 40%? COC(=O)c1csc(C(=O)COc2ccc(Oc3ccc(F)cc3)cc2)n1 [GK440]
Ans. Condition not met

Qu. Reported inhibition at 0.091 mole fraction at or above 40%? CCCCCCSc1ccc(OC(C)C(=O)c2nc(C(=O)OC)cs2)cc1 (stereo not shown) [GK449]
Ans. Condition met

More entries:
Qu. Reported inhibition at 0.091 mole fraction at or above 40%? COC(=O)c1csc(C(=O)COc2ccc(Oc3ccccc3)cc2)n1 [GK403]
Ans. Condition not met

Qu. Reported inhibition at 0.091 mole fraction at or above 40%? CCCCCCCCc1ccc(OCC(=O)c2nc(C(=O)OCC)cs2)cc1 [GK401]
Ans. Condition met

Qu. Reported inhibition at 0.091 mole fraction at or above 40%? CCCCCCCOc1ccc(OC(C)C(=O)c2nc(C(=O)OC)cs2)cc1 (stereo not shown) [GK439]
Ans. Condition met

---

I'd appreciate it if you could supply inhibition at 0.091 mole fraction values for the items below.
# tested on: secreted GV sPLA2 (Homo sapiens, UniProt P39877)
# procedure summary: radioactivity-based mixed micelle assay, GV sPLA2
# Format: biochemical
# details: average of triplicates; read-out: sPLA2 % inhibition at 0.091 mole fraction, average
Numbers only, in %.

Qu. Query inhibition at 0.091 mole fraction on secreted GV sPLA2 (Homo sapiens, UniProt P39877) for CCCCCCSc1ccc(OCC(=O)c2nc(C(=O)OC)cs2)cc1 [GK427]
Ans. 43.6

Qu. Query inhibition at 0.091 mole fraction on secreted GV sPLA2 (Homo sapiens, UniProt P39877) for CCCCCCCOc1ccc(OCC(=O)c2nc(C(=O)OC)cs2)cc1 [GK420]
Ans. 46.4

Qu. Query inhibition at 0.091 mole fraction on secreted GV sPLA2 (Homo sapiens, UniProt P39877) for COC(=O)c1csc(C(=O)C(C)Oc2ccc(Oc3ccccc3)cc2)n1 (centres unmarked) [GK428]
Ans. 36.4

Qu. Query inhibition at 0.091 mole fraction on secreted GV sPLA2 (Homo sapiens, UniProt P39877) for CCCCCCOc1ccc(SCC(=O)c2nc(C(=O)OC)cs2)cc1 [GK419]
Ans. 29.2

The record that follows has no inhibition at 0.091 mole fraction shown yet.
Qu. Query inhibition at 0.091 mole fraction on secreted GV sPLA2 (Homo sapiens, UniProt P39877) for CCCCCCCCc1ccc(OC(C)C(=O)c2nc(C(=O)OC)cs2)cc1 (centres unmarked) [GK402]
Ans. 49.5

---

# Tested on: panel of 66 cancer cell lines
# procedure summary: cancer cell line screen, proliferation assay (ATPlite, 72 h)
# Type: cell-based, human
# details: Homo sapiens, LNCaP, LNCaP FGC; read-out: IC50
recorded endpoint: pIC50
Answers are plain numbers, as −log10 of the molar value.

Qu. For the compound shown here, CCCCCCCOc1ccc(OCC(=O)c2nc(C(=O)OC)cs2)cc1 , give the reported pIC50.
Ans. 4.04

---

# Test system: SW982 synoviocytes
# procedure summary: cellular arachidonic acid (AA) release assay, IL-1β stimulated
# Format: cell-based, human
# details: Homo sapiens, SW982, 5 µM, individual biological replicate
I'd appreciate it if you could supply inhibition at 5 µM values for the items below.
Give bare numbers, in %.

Answered examples (5):
Qu. For the compound shown here, CCCCCCCOc1ccc(OC(C)C(=O)c2nc(C(=O)OC)cs2)cc1 (stereo not shown) [GK439] , give the reported inhibition at 5 µM.
Ans. 116

Qu. For the compound shown here, CCCCCCCCc1ccc(OCC(=O)c2nc(C(=O)OCC)cs2)cc1 [GK401] , give the reported inhibition at 5 µM.
Ans. 92.1

Qu. For the compound shown here, CCCCCCSc1ccc(OCC(=O)c2nc(C(=O)OC)cs2)cc1 [GK427] , give the reported inhibition at 5 µM.
Ans. 84

Qu. For the compound shown here, COC(=O)c1csc(C(=O)COc2ccc(Oc3ccccc3)cc2)n1 [GK403] , give the reported inhibition at 5 µM.
Ans. 101

Qu. For the compound shown here, CCCCCCCOc1ccc(OCC(=O)c2nc(C(=O)OC)cs2)cc1 [GK420] , give the reported inhibition at 5 µM.
Ans. 119

Quick one: give me inhibition at 5 µM for each item below, same order please.
1. CCCCCCCCc1ccc(OC(C)C(=O)c2nc(C(=O)OC)cs2)cc1 (stereo not shown) [GK402]
2. CCCCCCCCc1ccc(OCC(=O)c2nc(C(=O)OC)cs2)cc1 [GK470]

Ans.
36.7
110
